Target: LPA1R (Homo sapiens, UniProt Q92633)
Sequence (Q92633 whole entry): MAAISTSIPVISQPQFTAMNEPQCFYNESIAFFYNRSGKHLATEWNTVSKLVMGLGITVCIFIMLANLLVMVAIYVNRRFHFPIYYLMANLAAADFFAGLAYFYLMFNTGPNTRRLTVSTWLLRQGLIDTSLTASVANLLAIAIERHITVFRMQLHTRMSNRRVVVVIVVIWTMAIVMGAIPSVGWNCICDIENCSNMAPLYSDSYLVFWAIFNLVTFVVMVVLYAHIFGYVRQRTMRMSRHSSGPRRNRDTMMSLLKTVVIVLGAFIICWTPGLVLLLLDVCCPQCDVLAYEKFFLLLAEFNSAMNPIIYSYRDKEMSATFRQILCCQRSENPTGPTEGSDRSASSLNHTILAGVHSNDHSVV
Experiment: LPA1R Ca2+ flux functional assay (antagonist mode, FLIPR)
Conditions: inhibition of LPA-stimulated Ca2+ flux, LPA at EC80, LPA1R expressing cells (Millipore); read-out: LPA1 R Antagonist Activity
pIC50: −log10 of the molar value.
Listed here: items and their measured pIC50.
measured attribute: pIC50

1) Cc1c(NC(=O)O[C@H](C)c2ccccc2)c(-c2ccc(C(=O)N[C@H](Cc3ccccc3)C(=O)O)cc2)nn1C | < 4.30
2) Cc1noc(-c2ccc(CNC(Cc3ccccc3F)C(=O)O)cc2)c1NC(=O)OC(C)c1ccccc1Cl (centres unmarked) | > 6.52
3) Cc1noc(-c2ccc(CN[C@H](Cc3ccccc3F)C(=O)O)cc2)c1NC(=O)O[C@H](C)c1ccccc1 | > 6.52
4) Cc1noc(-c2ccc(CN[C@H](Cc3ccccc3)C(=O)O)cc2)c1NC(=O)O[C@H](C)c1ccccc1 | > 6.52
5) Cc1noc(-c2ccc(C(=O)N[C@H](Cc3ccc(C#N)cc3)C(=O)O)cc2)c1NC(=O)O[C@H](C)c1ccccc1Cl | 4.30 to 6.00
6) Cc1noc(-c2ccc(CN[C@H](Cc3ccc(C(F)(F)F)cc3)C(=O)O)cc2)c1NC(=O)O[C@H](C)c1ccccc1 | > 6.52
7) Cc1noc(-c2ccc(C(=O)NC3(C(=O)O)Cc4ccccc4C3)cc2)c1NC(=O)OC(C)c1ccccc1Cl (centres unmarked) | 4.30 to 6.00
8) C[C@@H](OC(=O)Nc1c(F)cnn1-c1ccc(-c2ccc(C3(C(=O)O)CC3)c(F)c2)cc1)c1ccccc1Cl | > 6.52
9) Cc1noc(-c2ccc(CN[C@H](Cc3ccccc3)C(=O)O)cc2)c1NC(=O)O[C@H](C)c1ccccc1Cl | > 6.52
10) Cc1c(NC(=O)O[C@H](C)c2ccccc2)c(-c2ccc(C(=O)N[C@H](Cc3ccc(F)c(F)c3)C(=O)O)cc2)nn1C | < 4.30
11) C[C@@H](OC(=O)Nc1c(C(F)(F)F)cnn1-c1ccc(-c2ccc(C3(C(=O)O)CC3)cc2F)cc1)c1ccccc1 | 6.00 to 6.52

###

Target: LPA1R (Homo sapiens, UniProt Q92633)
Test: LPA1R Ca2+ flux functional assay (antagonist mode, FLIPR)
Conditions: inhibition of LPA-stimulated Ca2+ flux, LPA at EC80, LPA1R expressing cells (Millipore); read-out: LPA1 R Antagonist Activity
pIC50: −log10 of the molar value.
measured attribute: pIC50

1) Cc1noc(-c2ccc(CN[C@H](Cc3ccccc3Cl)C(=O)O)cc2)c1NC(=O)O[C@H](C)c1ccccc1Cl | > 6.52
2) Cc1ccc(C[C@@H](NC(=O)c2ccc(-c3onc(C)c3NC(=O)O[C@H](C)c3ccccc3Cl)cc2)C(=O)O)cc1 | > 6.52
3) Cc1noc(-c2ccc(C(=O)N[C@H](Cc3ccccc3)C(=O)O)cc2)c1NC(=O)O[C@@H](C)c1ccccc1 | < 4.30
4) Cc1noc(-c2ccc(C(=O)N[C@@H](Cc3ccccc3)C(=O)O)cc2)c1NC(=O)O[C@@H](C)c1ccccc1 | < 4.30
5) Cc1nn(C)c(-c2ccc(C(=O)N[C@H](Cc3ccc(Br)cc3)C(=O)O)cc2)c1NC(=O)O[C@H](C)c1ccccc1 | < 4.30
6) C[C@@H](OC(=O)Nc1c(C(F)(F)F)cnn1-c1ccc(-c2ccc(C3(C(=O)O)CC3)cc2)cc1)c1ccccc1 | 6.00 to 6.52
7) C[C@@H](OC(=O)Nc1c(F)cnn1-c1ccc(-c2ccc(C3(C(=O)O)CC3)cc2F)cc1)c1ccccc1Cl | > 6.52
8) Cc1noc(-c2ccc(COC(Cc3ccccc3)C(=O)O)cc2)c1NC(=O)O[C@H](C)c1ccccc1 (some centres unmarked) [Example 42] | > 6.52
9) Cc1nn(C)c(-c2ccc(C(=O)N[C@H](Cc3ccc(F)c(F)c3)C(=O)O)cc2)c1NC(=O)O[C@H](C)c1ccccc1 | < 4.30
10) Cc1nn(C)c(-c2ccc(C(=O)N[C@H](Cc3ccccc3)C(=O)O)cc2)c1NC(=O)O[C@H](C)c1ccccc1 | < 4.30
11) Cc1noc(-c2ccc(C(=O)N[C@H](Cc3ccc(Cl)cc3)C(=O)O)cc2)c1NC(=O)O[C@H](C)c1ccccc1Cl | > 6.52
12) Cc1noc(-c2ccc(C(=O)NC3(C(=O)O)CC3)cc2)c1NC(=O)OC(C)c1ccccc1Cl (centres unmarked) | 4.30 to 6.00
13) Cc1noc(-c2ccc(C(=O)N[C@H](Cc3ccccc3)C(=O)O)cc2)c1NC(=O)O[C@H](C)c1ccccc1 | > 6.52
14) Cc1noc(-c2ccc(CN[C@H](CC3CC3)C(=O)O)cc2)c1NC(=O)O[C@H](C)c1ccccc1Cl | > 6.52
